Where these numbers come from: patent US12202815B2

# Protocol notes: Pharmacokinetics in male Sprague Dawley rats (oral 7 days, iv Day 1)
# Protocol conditions: male, Sprague Dawley, rat, in vivo, iv, 5 mg/kg
The following compounds are shown together with reported Cmax values.
# number only, unit ng/mL dropped from output

* C[C@](O)(Cn1cc(F)cn1)C(=O)Nc1ccc(C#N)c(C(F)(F)F)c1 [Compound 1002] | 2290

Shifting focus to the compound that follows.
Fill in the blank: the reported Cmax of C[C@](O)(Cn1cc(C#N)cn1)C(=O)Nc1cnc(C#N)c(C(F)(F)F)c1 [Compound 1065] is ____. 2600

----------
# Protocol notes: Pharmacokinetics in male Sprague Dawley rats (oral 7 days, iv Day 1)
# Protocol conditions: male, Sprague Dawley, rat, in vivo, po, 20 mg/kg
Assay metric: Tmax (h)
# number only, unit h dropped from output

Fill in the blank: the reported Tmax of `C[C@](O)(Cn1cc(F)cn1)C(=O)Nc1ccc(C#N)c(C(F)(F)F)c1` is ____. 6

----------
# Protocol notes: Pharmacokinetics in male Sprague Dawley rats (oral 7 days, iv Day 1)
# Protocol conditions: male, Sprague Dawley, rat, in vivo, po, 5 mg/kg/day
Assay metric: AUC(0-t) (ng·h/mL)
# number only, unit ng·h/mL dropped from output

Fill in the blank: the reported AUC(0-t) of C[C@](O)(Cn1cc(C#N)cn1)C(=O)Nc1cnc(C#N)c(C(F)(F)F)c1 [Compound 1065] is ____. 34900

----------
# Protocol notes: RLM metabolism half-life
# Assay type: in vitro ADME
# Protocol conditions: rat liver microsomes
The following molecules are shown together with reported RLM Metebolism (H.L. min) values.
# number only, unit min dropped from output

* C[C@](O)(Cn1cc(F)cn1)C(=O)Nc1ccc(C#N)c(C(F)(F)F)c1 | 78
* C[C@](O)(Cn1cc(F)cn1)C(=O)Nc1cnc(C#N)c(C(F)(F)F)c1 | 146
* C[C@](O)(Cn1cc(C#N)cn1)C(=O)Nc1cnc(C#N)c(C(F)(F)F)c1 | 84

Fill in the blank: the reported RLM Metebolism (H.L. min) of `C[C@](O)(Cn1cc(Br)c(F)n1)C(=O)Nc1ccc(C#N)c(C(F)(F)F)c1` is ____. 400

Fill in the blank: the reported RLM Metebolism (H.L. min) of `C[C@](O)(Cn1cc(Cl)c(Br)n1)C(=O)Nc1ccc(C#N)c(C(F)(F)F)c1` is ____. 300

Fill in the blank: the reported RLM Metebolism (H.L. min) of `C[C@](O)(Cn1cc(C#N)cn1)C(=O)Nc1ccc(C#N)c(C(F)(F)F)c1` is ____. 86

Fill in the blank: the reported RLM Metebolism (H.L. min) of `C[C@](O)(Cn1cc(C(F)(F)F)cn1)C(=O)Nc1ccc(C#N)c(C(F)(F)F)c1` is ____. 400

----------
# Protocol notes: Pharmacokinetics in male Sprague Dawley rats (oral 7 days, iv Day 1)
# Protocol conditions: male, Sprague Dawley, rat, in vivo, po, 20 mg/kg/day
Assay metric: Tmax (h)
# number only, unit h dropped from output

Fill in the blank: the reported Tmax of `C[C@](O)(Cn1cc(C#N)cn1)C(=O)Nc1cnc(C#N)c(C(F)(F)F)c1` is ____. 6

----------
# Protocol notes: Pharmacokinetics in male Sprague Dawley rats (oral 7 days, iv Day 1)
# Protocol conditions: male, Sprague Dawley, rat, in vivo, po, 5 mg/kg
Assay metric: Cmax (ng/mL)
# number only, unit ng/mL dropped from output

Fill in the blank: the reported Cmax of `C[C@](O)(Cn1cc(F)cn1)C(=O)Nc1ccc(C#N)c(C(F)(F)F)c1` is ____. 526

----------
# Protocol notes: Pharmacokinetics in male Sprague Dawley rats (oral 7 days, iv Day 1)
# Protocol conditions: male, Sprague Dawley, rat, in vivo, po, 1 mg/kg/day
Assay metric: AUC(0-t) (ng·h/mL)
# number only, unit ng·h/mL dropped from output

Fill in the blank: the reported AUC(0-t) of `C[C@](O)(Cn1cc(C#N)cn1)C(=O)Nc1cnc(C#N)c(C(F)(F)F)c1` is ____. 7300

----------
# Protocol notes: Pharmacokinetics in male Sprague Dawley rats (oral 7 days, iv Day 1)
# Protocol conditions: male, Sprague Dawley, rat, in vivo, po, 20 mg/kg/day
Assay metric: AUC(0-t) (µg·h/mL)
# number only, unit µg·h/mL dropped from output

Fill in the blank: the reported AUC(0-t) of C[C@](O)(Cn1cc(C#N)cn1)C(=O)Nc1cnc(C#N)c(C(F)(F)F)c1 [Compound 1065] is ____. 102
